- system tested: PI3K p110 beta/p85 alpha (Homo sapiens, UniProt P42338)
- Sequence (P27986 whole entry): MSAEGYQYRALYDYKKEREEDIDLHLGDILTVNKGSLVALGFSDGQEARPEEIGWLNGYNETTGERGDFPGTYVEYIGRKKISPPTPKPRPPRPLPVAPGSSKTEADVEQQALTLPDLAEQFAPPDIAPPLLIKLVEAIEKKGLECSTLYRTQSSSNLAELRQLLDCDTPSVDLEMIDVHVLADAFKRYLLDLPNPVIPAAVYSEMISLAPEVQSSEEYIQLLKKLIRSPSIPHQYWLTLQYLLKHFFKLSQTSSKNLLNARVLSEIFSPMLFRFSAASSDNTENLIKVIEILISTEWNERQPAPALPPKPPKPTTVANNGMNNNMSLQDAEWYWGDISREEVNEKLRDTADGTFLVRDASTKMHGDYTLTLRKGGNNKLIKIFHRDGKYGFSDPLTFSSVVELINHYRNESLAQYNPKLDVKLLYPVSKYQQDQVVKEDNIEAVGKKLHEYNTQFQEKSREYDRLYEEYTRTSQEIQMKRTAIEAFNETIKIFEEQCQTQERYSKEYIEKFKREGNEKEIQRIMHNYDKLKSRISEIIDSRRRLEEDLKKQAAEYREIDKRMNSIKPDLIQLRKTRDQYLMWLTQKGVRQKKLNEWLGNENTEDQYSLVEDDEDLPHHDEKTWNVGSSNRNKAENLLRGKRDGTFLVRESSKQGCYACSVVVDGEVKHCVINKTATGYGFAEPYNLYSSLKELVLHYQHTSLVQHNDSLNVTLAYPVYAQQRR
- Sequence (P42338 whole entry): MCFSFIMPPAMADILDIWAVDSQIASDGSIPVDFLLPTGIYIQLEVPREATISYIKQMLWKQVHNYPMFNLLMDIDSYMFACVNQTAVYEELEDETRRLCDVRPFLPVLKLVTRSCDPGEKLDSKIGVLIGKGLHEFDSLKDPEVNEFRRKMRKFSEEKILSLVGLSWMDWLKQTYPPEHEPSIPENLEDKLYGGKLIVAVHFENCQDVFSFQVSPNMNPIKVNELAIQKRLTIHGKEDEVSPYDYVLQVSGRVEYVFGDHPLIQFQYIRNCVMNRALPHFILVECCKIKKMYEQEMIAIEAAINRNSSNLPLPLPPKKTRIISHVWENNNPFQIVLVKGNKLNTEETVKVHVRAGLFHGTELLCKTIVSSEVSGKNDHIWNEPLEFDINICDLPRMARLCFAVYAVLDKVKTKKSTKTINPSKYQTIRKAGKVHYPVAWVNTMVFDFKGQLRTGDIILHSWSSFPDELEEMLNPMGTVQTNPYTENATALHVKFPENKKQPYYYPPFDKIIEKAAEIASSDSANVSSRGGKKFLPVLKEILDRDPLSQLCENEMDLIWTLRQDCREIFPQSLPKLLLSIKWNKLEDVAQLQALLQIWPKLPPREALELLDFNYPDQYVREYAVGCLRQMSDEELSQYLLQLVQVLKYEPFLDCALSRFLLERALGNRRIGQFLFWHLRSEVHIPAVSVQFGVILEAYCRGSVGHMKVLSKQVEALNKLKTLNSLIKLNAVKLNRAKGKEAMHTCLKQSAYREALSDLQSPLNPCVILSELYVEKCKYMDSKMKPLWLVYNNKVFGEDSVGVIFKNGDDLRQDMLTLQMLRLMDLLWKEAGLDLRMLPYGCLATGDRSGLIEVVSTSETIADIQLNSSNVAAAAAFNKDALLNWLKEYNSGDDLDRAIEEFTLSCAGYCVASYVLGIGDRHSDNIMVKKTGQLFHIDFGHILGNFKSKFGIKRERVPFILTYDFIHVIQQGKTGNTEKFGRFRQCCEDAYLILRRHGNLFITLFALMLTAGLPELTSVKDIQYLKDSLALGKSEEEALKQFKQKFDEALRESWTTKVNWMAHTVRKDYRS
- assay details: Inhibition of recombinant human full-length N-terminal His-tagged PI3K p110beta/p85alpha using […] as substrate measured after 30 mins by TR-FRET assay
assay readout: IC50 (nM)

Solved cases below.
- C[C@H](Nc1nc(N)nc(N)c1C#N)c1nc2cccc(Cl)c2c(=O)n1-c1cncc(Cl)c1: 1200
- C[C@H](Nc1nc(N)nc(N)c1C#N)c1nc2c(F)ccc(Cl)c2c(=O)n1-c1cccnc1: 46

[a] C[C@H](Nc1nc(N)nc(N)c1C#N)c1nc2cccc(Cl)c2c(=O)n1-c1cncc(C#N)c1
[b] C[C@H](Nc1nc(N)nc(N)c1C#N)c1nc2cccc(Cl)c2c(=O)n1-c1cncc(F)c1
[c] C[C@H](Nc1nc(N)nc(N)c1C#N)c1nc2c(Cl)ccc(Cl)c2c(=O)n1-c1cccnc1
Ask: // ranking: key=IC50, reverse=True Give your ranking as a list of the labels in the requested order.
Reply: a, b, c

====

- system tested: Phosphatidylinositol 4,5-bisphosphate 3-kinase catalytic subunit alpha isoform (Mus musculus, UniProt P42337)
- Sequence (P42337 whole entry, canonical isoform): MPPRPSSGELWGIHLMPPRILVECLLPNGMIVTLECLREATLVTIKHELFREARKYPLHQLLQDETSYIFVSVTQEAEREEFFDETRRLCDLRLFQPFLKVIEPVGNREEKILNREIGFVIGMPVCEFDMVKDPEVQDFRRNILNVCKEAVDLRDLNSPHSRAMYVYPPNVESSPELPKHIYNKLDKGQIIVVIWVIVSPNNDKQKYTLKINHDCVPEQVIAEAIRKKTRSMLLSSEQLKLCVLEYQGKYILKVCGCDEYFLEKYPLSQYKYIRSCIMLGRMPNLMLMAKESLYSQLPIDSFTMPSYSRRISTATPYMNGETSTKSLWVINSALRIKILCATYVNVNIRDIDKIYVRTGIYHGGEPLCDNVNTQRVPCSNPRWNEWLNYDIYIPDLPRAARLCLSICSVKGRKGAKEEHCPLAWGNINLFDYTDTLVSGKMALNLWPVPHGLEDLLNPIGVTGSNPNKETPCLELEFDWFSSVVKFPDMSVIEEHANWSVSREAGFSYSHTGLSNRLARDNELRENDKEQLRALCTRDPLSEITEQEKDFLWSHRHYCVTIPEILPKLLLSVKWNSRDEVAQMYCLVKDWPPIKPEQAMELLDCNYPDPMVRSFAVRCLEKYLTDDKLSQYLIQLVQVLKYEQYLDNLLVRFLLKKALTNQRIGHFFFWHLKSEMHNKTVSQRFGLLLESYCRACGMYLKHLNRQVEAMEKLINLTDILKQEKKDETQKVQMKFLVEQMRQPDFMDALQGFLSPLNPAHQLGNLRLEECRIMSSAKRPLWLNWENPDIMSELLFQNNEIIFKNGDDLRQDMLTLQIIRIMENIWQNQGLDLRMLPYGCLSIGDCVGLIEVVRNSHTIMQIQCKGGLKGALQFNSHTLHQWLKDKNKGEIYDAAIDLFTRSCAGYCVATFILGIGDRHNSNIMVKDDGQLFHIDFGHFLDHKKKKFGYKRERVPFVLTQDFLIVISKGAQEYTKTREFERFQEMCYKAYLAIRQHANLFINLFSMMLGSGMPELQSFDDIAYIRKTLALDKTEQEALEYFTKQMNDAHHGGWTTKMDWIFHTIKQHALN
- assay details: Inhibition of PI3K p110alpha in mouse embryonic fibroblast cells assessed as reduction in PDGF-induced AKT phosphorylation at S473 residue preincubated for 2 hrs followed by PDGF stimulation and measured after 10 mins
assay readout: EC50 (nM)
// return numeric value only (unit: nM, not printed)

Ask: Sample N#Cc1c(N)nc(N)nc1N[C@H](c1nc2c(F)ccc(Cl)c2c(=O)n1-c1cccnc1)C1CC1 — what was its EC50?
Reply: 1170

====

- assay details: Selectivity index, ratio of IC50 for inhibition of recombinant human full-length N-terminal His-tagged PI3K p110beta/p85alpha to IC50 for inhibition of human full length PI3K p110delta/p85alpha
assay readout: Ratio IC50

Solved cases below.
- C[C@H](Nc1nc(N)nc(N)c1C#N)c1nc2cccc(Cl)c2c(=O)n1-c1cccnc1: 160
- C[C@H](Nc1nc(N)nc(N)c1C#N)c1nc2cccc(Cl)c2c(=O)n1-c1ccccc1: 80

[P] N#Cc1c(N)nc(N)nc1N[C@H](c1nc2c(F)ccc(Cl)c2c(=O)n1-c1cccnc1)C1CC1 [GS-9901]
[Q] C[C@H](Nc1nc(N)nc(N)c1C#N)c1nc2cccc(Cl)c2c(=O)n1-c1cncc(F)c1
[R] C[C@H](Nc1nc(N)nc(N)c1C#N)c1nc2cccc(F)c2c(=O)n1-c1cc(F)cc(F)c1
Ask: // ranking: key=Ratio IC50, reverse=True Give your ranking as a list of the labels in the requested order.
Reply: R, Q, P
(R: 650, Q: 430, P: 100)

====

- assay details: MRT in rhesus monkey at 1 mg/kg, iv measured over 24 hrs by LC/MS/MS analysis
- Format: ADME, organism-based, Macaca mulatta
- condition summary: in vivo
assay readout: MRT (h)
// return numeric value only (unit: h, not printed)

Ask: Sample N#Cc1c(N)nc(N)nc1N[C@H](c1nc2c(F)ccc(Cl)c2c(=O)n1-c1cccnc1)C1CC1 — what was its MRT?
Reply: 2

====

- system tested: Phosphatidylinositol 4,5-bisphosphate 3-kinase catalytic subunit gamma isoform (Homo sapiens, UniProt P48736)
- Sequence (P48736 whole entry, canonical isoform): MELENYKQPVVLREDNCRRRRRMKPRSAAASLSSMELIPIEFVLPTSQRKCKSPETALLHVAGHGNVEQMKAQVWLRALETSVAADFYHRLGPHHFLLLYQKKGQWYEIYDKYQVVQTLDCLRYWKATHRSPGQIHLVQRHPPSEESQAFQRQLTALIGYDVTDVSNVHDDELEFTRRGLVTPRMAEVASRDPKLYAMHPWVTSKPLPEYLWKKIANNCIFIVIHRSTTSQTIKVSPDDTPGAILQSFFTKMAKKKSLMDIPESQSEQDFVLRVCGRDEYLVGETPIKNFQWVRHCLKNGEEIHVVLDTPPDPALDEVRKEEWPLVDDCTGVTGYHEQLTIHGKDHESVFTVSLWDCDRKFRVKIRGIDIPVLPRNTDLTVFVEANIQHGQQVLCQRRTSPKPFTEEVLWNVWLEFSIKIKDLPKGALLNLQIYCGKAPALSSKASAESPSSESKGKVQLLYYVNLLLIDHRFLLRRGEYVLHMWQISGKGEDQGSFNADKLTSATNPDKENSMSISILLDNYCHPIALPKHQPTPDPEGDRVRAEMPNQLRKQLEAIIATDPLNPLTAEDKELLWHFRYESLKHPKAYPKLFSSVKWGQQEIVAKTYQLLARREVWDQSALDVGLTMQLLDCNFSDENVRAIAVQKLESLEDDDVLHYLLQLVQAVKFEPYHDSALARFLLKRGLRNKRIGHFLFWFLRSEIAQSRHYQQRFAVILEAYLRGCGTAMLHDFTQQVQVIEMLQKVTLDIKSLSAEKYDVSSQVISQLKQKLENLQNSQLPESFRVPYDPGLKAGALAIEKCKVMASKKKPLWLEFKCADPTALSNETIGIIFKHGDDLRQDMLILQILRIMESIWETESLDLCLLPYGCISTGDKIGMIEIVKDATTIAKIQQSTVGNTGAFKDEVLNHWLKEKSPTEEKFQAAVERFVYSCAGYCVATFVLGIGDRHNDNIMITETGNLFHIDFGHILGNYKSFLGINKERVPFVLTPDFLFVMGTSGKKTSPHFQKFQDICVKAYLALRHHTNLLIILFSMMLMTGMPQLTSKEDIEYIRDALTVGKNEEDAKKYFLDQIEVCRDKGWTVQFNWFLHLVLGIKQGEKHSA
- assay details: Inhibition of human full length PI3K p110gamma using […] as substrate measured after 30 mins by TR-FRET assay
assay readout: IC50 (nM)

Solved cases below.
- Cc1ccncc1-n1c([C@H](C)Nc2nc(N)nc(N)c2C#N)nc2cccc(Cl)c2c1=O (stereo in doubt; 26): 1300
- C[C@H](Nc1nc(N)nc(N)c1C#N)c1nc2cccc(Cl)c2c(=O)n1-c1cncc(C(F)(F)F)c1: 1300

[P] C[C@H](Nc1nc(N)nc(N)c1C#N)c1nc2c(F)ccc(F)c2c(=O)n1-c1cccnc1
[Q] N#Cc1c(N)nc(N)nc1N[C@H](c1nc2c(F)ccc(Cl)c2c(=O)n1-c1cccnc1)C1CC1
Ask: Would you kindly point out which of P and Q has the smaller IC50 figure? State your choice using its label.
Reply: Q

# credit: ChEMBL document CHEMBL4765230
